From: ChEMBL document CHEMBL4680168

# test-name: Inhibition of TGFbeta signalling pathway in MLEC preincubated for 30 mins followed by TGF-beta1 addition and measured after 18 hrs by Steady-Glo luciferase assay
# Design: species or system Neovison vison
# condition-parameters: read-out: IC50
measured-endpoint: IC50 (µM)

| structure-string | unit-abbreviation | measured-number |
| --- | --- | --- |
| Cc1c(CNc2cccc(C(N)=O)c2)c(C)c(CNc2cccc(C(N)=O)c2)c(C)c1CNc1cccc(C(N)=O)c1 | µM | 31.9 |

(P) c1ccc(CN2COc3c(c4c(c5c3CN(Cc3ccccc3)CO5)CN(Cc3ccccc3)CO4)C2)cc1
(Q) Cc1c(CNc2ccccc2)c(C)c(CNc2ccccc2)c(C)c1CNc1ccccc1
(R) COC(=O)c1cccc(NCc2c(C)c(CNc3cccc(C(=O)OC)c3)c(C)c(CNc3cccc(C(=O)OC)c3)c2C)c1
Q. Parameters: sort_field (IC50), sort_dir (desc). Answer with the labels in sequence, matching the requested order.
A. R, P, Q
